- METHOD_SUMMARY: Serum concentration and pharmacokinetics of SCI after oral gavage in Wistar rats
- Type: in vivo, Wistar rat
- EXPERIMENTAL_CONDITIONS: male, Wistar, rat, serum, po, 10 mg/kg, Mean concentration of SCI in serum, 4 h after oral 10 mg/kg; mean of rats 4–6
- Method: All procedures were performed according to the Local Ethical Committee of Experiments on Animals guidelines in Olsztyn, Poland. The experiment was conducted in the same way as described by Antonowski et al.. […] The analysis is described in detail by Antonowski and co-workers. […] Next, samples were analyzed using the high-resolution gas chromatography method. […] Finally, scyllo-inositol was quantified by using a standard. The PK parameters were calculated using PK Solver. […]
EXPERIMENTAL_READOUT: concentration at 4 h (ng/mL)
Give just the numeric value; ng/mL need not be written.

Asked: Give its concentration at 4 h value. Item: O[C@H]1[C@H](O)[C@@H](O)[C@H](O)[C@@H](O)[C@@H]1O
Given back: 3430

###

- METHOD_SUMMARY: Serum concentration and pharmacokinetics of SCI after oral gavage in Wistar rats
- Assay type: in vivo, Wistar rat
- EXPERIMENTAL_CONDITIONS: male, Wistar, rat, serum, po, 10 mg/kg, Concentration of SCI in serum, Rat No. 5; time 8 h; oral 10 mg/kg
EXPERIMENTAL_READOUT: concentration at 8 h (ng/mL)
Numbers only; they are read as ng/mL.

Asked: Returns the measured concentration at 8 h for the input compound. Input: O[C@H]1[C@H](O)[C@@H](O)[C@H](O)[C@@H](O)[C@@H]1O
Given back: 200

###

- METHOD_SUMMARY: Serum concentration and pharmacokinetics of SCI after oral gavage in Wistar rats
- Type: in vivo, Wistar rat
- EXPERIMENTAL_CONDITIONS: male, Wistar, rat, serum, po, 10 mg/kg, Concentration of SCI in serum, Rat No. 6; time 8 h; oral 10 mg/kg
EXPERIMENTAL_READOUT: concentration at 8 h

Asked: Recorded concentration at 8 h for O[C@H]1[C@H](O)[C@@H](O)[C@H](O)[C@@H](O)[C@@H]1O , please?
Given back: 400 ng/mL

###

- METHOD_SUMMARY: Serum concentration and pharmacokinetics of SCI after oral gavage in Wistar rats
- Format: in vivo, Wistar rat
- EXPERIMENTAL_CONDITIONS: male, Wistar, rat, serum, po, 10 mg/kg, Concentration of SCI in serum, Rat No. 2; time 1 h; oral 10 mg/kg
EXPERIMENTAL_READOUT: concentration at 1 h
Just so you know, I need the unit written after the number.

Asked: Which concentration at 1 h reading was recorded for the molecule O[C@H]1[C@H](O)[C@@H](O)[C@H](O)[C@@H](O)[C@@H]1O ?
Given back: 5600 ng/mL

###

- METHOD_SUMMARY: Serum concentration and pharmacokinetics of SCI after oral gavage in Wistar rats
- Format: in vivo, Wistar rat
- EXPERIMENTAL_CONDITIONS: male, Wistar, rat, serum, po, 10 mg/kg, Mean of rats 4–6 ± SEM; oral 10 mg/kg
- Method: All procedures were performed according to the Local Ethical Committee of Experiments on Animals guidelines in Olsztyn, Poland. The experiment was conducted in the same way as described by Antonowski et al.. […] The analysis is described in detail by Antonowski and co-workers. […] Next, samples were analyzed using the high-resolution gas chromatography method. […] Finally, scyllo-inositol was quantified by using a standard. The PK parameters were calculated using PK Solver. […]
EXPERIMENTAL_READOUT: AUC(0-t)
Kindly write the number and append the unit.

Asked: So what's the measured AUC(0-t) for this one? O[C@H]1[C@H](O)[C@@H](O)[C@H](O)[C@@H](O)[C@@H]1O [SCI, scyllo-inositol]
Given back: 19800 ng·h/mL

###

- METHOD_SUMMARY: Serum concentration and pharmacokinetics of SCI after oral gavage in Wistar rats
- Assay type: in vivo, Wistar rat
- EXPERIMENTAL_CONDITIONS: male, Wistar, rat, serum, po, 10 mg/kg, Mean of rats 1–3 ± SEM; serum; oral 10 mg/kg; read-out: T0.5e (elimination half-life) (converted)
EXPERIMENTAL_READOUT: half-life (h)
Please respond with the number in h and leave the unit unwritten.

Asked: What half-life value was documented for this compound, O[C@H]1[C@H](O)[C@@H](O)[C@H](O)[C@@H](O)[C@@H]1O ?
Given back: 25.1

###

- METHOD_SUMMARY: Serum concentration and pharmacokinetics of SCI after oral gavage in Wistar rats
- Type: in vivo, Wistar rat
- EXPERIMENTAL_CONDITIONS: male, Wistar, rat, serum, po, 10 mg/kg, Concentration of SCI in serum, Rat No. 4; time 8 h; oral 10 mg/kg
EXPERIMENTAL_READOUT: concentration at 8 h
The reply should read as a number followed by its unit.

Asked: Need concentration at 8 h of O[C@H]1[C@H](O)[C@@H](O)[C@H](O)[C@@H](O)[C@@H]1O , thanks.
Given back: 400 ng/mL

###

- METHOD_SUMMARY: Serum concentration and pharmacokinetics of SCI after oral gavage in Wistar rats
- Type: in vivo, Wistar rat
- EXPERIMENTAL_CONDITIONS: male, Wistar, rat, serum, po, 10 mg/kg, Rat No 1; serum; oral 10 mg/kg; read-out: MRT (mean residence time)
EXPERIMENTAL_READOUT: MRT (min)
Numeric answer only, unit min assumed.

Asked: Query (compound): O[C@H]1[C@H](O)[C@@H](O)[C@H](O)[C@@H](O)[C@@H]1O [SCI, scyllo-inositol] ; field requested: MRT
Given back: 23.8

###

- METHOD_SUMMARY: Serum concentration and pharmacokinetics of SCI after oral gavage in Wistar rats
- Format: in vivo, Wistar rat
- EXPERIMENTAL_CONDITIONS: male, Wistar, rat, serum, po, 10 mg/kg, Rat No 4; serum; oral 10 mg/kg; read-out: T0.5e (elimination half-life) (converted)
EXPERIMENTAL_READOUT: half-life (min)
Write it as a number; the unit min goes unstated.

Asked: Please give the measured half-life for this compound: O[C@H]1[C@H](O)[C@@H](O)[C@H](O)[C@@H](O)[C@@H]1O
Given back: 45.7

###

- METHOD_SUMMARY: Serum concentration and pharmacokinetics of SCI after oral gavage in Wistar rats
- Type: in vivo, Wistar rat
- EXPERIMENTAL_CONDITIONS: male, Wistar, rat, serum, po, 10 mg/kg, Rat No 5; oral 10 mg/kg
EXPERIMENTAL_READOUT: Cmax (ng/mL)
Give just the numeric value; ng/mL need not be written.

Asked: For O[C@H]1[C@H](O)[C@@H](O)[C@H](O)[C@@H](O)[C@@H]1O [SCI, scyllo-inositol] , what is its reported Cmax?
Given back: 6100

###

- METHOD_SUMMARY: Serum concentration and pharmacokinetics of SCI after oral gavage in Wistar rats
- Type: in vivo, Wistar rat
- EXPERIMENTAL_CONDITIONS: male, Wistar, rat, serum, po, 10 mg/kg, Mean concentration of SCI in serum, 1.5 h after oral 10 mg/kg; mean of rats 1–3
EXPERIMENTAL_READOUT: concentration at 1.5 h (ng/mL)
Express it in ng/mL; write the number only.

Asked: Looking for the measured concentration at 1.5 h of O[C@H]1[C@H](O)[C@@H](O)[C@H](O)[C@@H](O)[C@@H]1O , can you help?
Given back: 5930

###

- METHOD_SUMMARY: Serum concentration and pharmacokinetics of SCI after oral gavage in Wistar rats
- Type: in vivo, Wistar rat
- EXPERIMENTAL_CONDITIONS: male, Wistar, rat, serum, po, 10 mg/kg, mean serum profile of six rats; oral 3.92 mg SCI (10 mg/kg)
- Procedure: All procedures were performed according to the Local Ethical Committee of Experiments on Animals guidelines in Olsztyn, Poland. The experiment was conducted in the same way as described by Antonowski et al.. […] The analysis is described in detail by Antonowski and co-workers. […] Next, samples were analyzed using the high-resolution gas chromatography method. […] Finally, scyllo-inositol was quantified by using a standard. The PK parameters were calculated using PK Solver. […]
EXPERIMENTAL_READOUT: AUC(0-t)

Asked: Look up AUC(0-t) for this compound: O[C@H]1[C@H](O)[C@@H](O)[C@H](O)[C@@H](O)[C@@H]1O
Given back: 23500 ng·h/mL

###

- METHOD_SUMMARY: Serum concentration and pharmacokinetics of SCI after oral gavage in Wistar rats
- Type: in vivo, Wistar rat
- EXPERIMENTAL_CONDITIONS: male, Wistar, rat, serum, po, 10 mg/kg, Mean concentration of SCI in serum, 2 h after oral 10 mg/kg; mean of rats 4–6
EXPERIMENTAL_READOUT: concentration at 2 h (ng/mL)
Report as a plain number; the unit ng/mL is understood.

Asked: Requested field: concentration at 2 h. Item: O[C@H]1[C@H](O)[C@@H](O)[C@H](O)[C@@H](O)[C@@H]1O
Given back: 4130
